method: Terminal half life in fasted Crl:CD(SD) rat at 1 mg/kg, iv
Type: ADME, organism-based
Design: dose 1 mg/kg, route intravenous
cond: in vivo, read-out: t1/2lambda (converted)
recorded_endpoint: half-life (h)
Numeric only. Scale: h

Given "Cc1cc(OCCCS(C)(=O)=O)cc(C)c1-c1cccc(COc2ccc3c(c2)OC[C@H]3CC(=O)O)c1.O" , state its recorded half-life.
4.7

----------
method: Cmax in fasted Crl:CD(SD) rat at 3 mg/kg, po
Format: ADME, organism-based
Design: dose 3 mg/kg, route oral
cond: in vivo
recorded_endpoint: Cmax
Record the result as a number with its unit.

Dear colleague, I am looking for the recorded Cmax of the following compound: "Cc1cc(OCCCS(C)(=O)=O)cc(C)c1-c1cccc(COc2ccc3c(c2)OC[C@H]3CC(=O)O)c1.O"
5770 ng/mL
